Tested on: LL47 (Fibroblast)
Test: CellTiter-Glo Luminescent Cell Viability Assay, LL47
Type: cell-based
Conditions: Homo sapiens, 48 h, Day 2
Description: CellTiter-Glo Luminescent Cell Viability Assay (Promega Corporation) is based on quantification of ATP levels in cell cultures. The amount of ATP produced in cell culture reflects the number of viable cells. […] Data was analyzed for the mean and standard deviation for each treatment condition. IC50 values of the compound of formula (II) against HUVEC and LL47 cell cultures were determined based on the dose response curves as shown in FIG. 1. […]
pIC50: −log10 of the molar value.
Assay metric: pIC50

Return reported pIC50; argument: C[As](C)SCC(NC(=O)CCC(N)C(=O)O)C(=O)NCC(=O)O (stereo not shown) > 2.30
